- assay.remarks: Stability of ITZA/POSA in solvent vehicles (HPLC)
- Format: physicochemical
- run.conditions: H3D/5% dex., day 3
quantity.kind: stability of ITZA (%)
Lab book: enter the figure in %, no units written.

# stability of ITZA (molecule: CCC(C)n1ncn(-c2ccc(N3CCN(c4ccc(OCC5COC(Cn6cncn6)(c6ccc(Cl)cc6Cl)O5)cc4)CC3)cc2)c1=O (stereo not shown) ) is 108

----------
- assay.remarks: Stability of ITZA/POSA in solvent vehicles (HPLC)
- Assay type: physicochemical
- run.conditions: H3G/10% dex., day 0
quantity.kind: stability of ITZA (%)
Lab book: enter the figure in %, no units written.

# stability of ITZA (molecule: CCC(C)n1ncn(-c2ccc(N3CCN(c4ccc(OCC5COC(Cn6cncn6)(c6ccc(Cl)cc6Cl)O5)cc4)CC3)cc2)c1=O (stereo not shown) [ITZA, itraconazole] ) is 100

----------
- assay.remarks: Stability of ITZA/POSA in solvent vehicles (HPLC)
- Assay type: physicochemical
- run.conditions: H3D/10% Dex., day 4
quantity.kind: stability of ITZA (%)
Lab book: enter the figure in %, no units written.

# stability of ITZA (compound: CCC(C)n1ncn(-c2ccc(N3CCN(c4ccc(OCC5COC(Cn6cncn6)(c6ccc(Cl)cc6Cl)O5)cc4)CC3)cc2)c1=O (stereo not shown) [ITZA, itraconazole] ) is 99

----------
- assay.remarks: Maximum solubility of ITZA and azole analogues in solvents (HPLC)
- Format: physicochemical
- run.conditions: organic solvent or mixture, thermodynamic from solid, solvent H3D (no benzyl alcohol), single determination; read-out: Azole solubility, [Drug] mg/mL
Quick list: solubility at 30 min per entry.
Lab book: enter the figure in mg/mL, no units written.

molecule="OC(Cn1cncn1)(Cn1cncn1)c1ccc(F)cc1F [FZSA, Fluconazole]" quantity_kind="solubility at 30 min" unit=mg/mL readout_value=38.6

// next item, solubility at 30 min requested
# solubility at 30 min (molecule: CC(=O)N1CCN(c2ccc(OCC3COC(Cn4ccnc4)(c4ccc(Cl)cc4Cl)O3)cc2)CC1 (centres unmarked) [KZSA, Ketoconazole] ) is 15.4

----------
Quick list: solubility at 30 min per entry.
- assay.remarks: Maximum solubility of ITZA and azole analogues in solvents (HPLC)
- Assay type: physicochemical
- run.conditions: solvent H3G (no benzyl alcohol), organic solvent or mixture, thermodynamic from solid, solvent H3G (no benzyl alcohol), single determination; read-out: Azole solubility, [Drug] mg/mL
# output: numeric value plus its unit

compound="CC[C@@H]([C@H](C)O)n1ncn(-c2ccc(N3CCN(c4ccc(OC[C@@H]5CO[C@@](Cn6cncn6)(c6ccc(F)cc6F)C5)cc4)CC3)cc2)c1=O [POSA, posaconazole]" readout_value="30.6 mg/mL"

// next item, solubility at 30 min requested
# solubility at 30 min (compound: CCC(C)n1ncn(-c2ccc(N3CCN(c4ccc(OCC5COC(Cn6cncn6)(c6ccc(Cl)cc6Cl)O5)cc4)CC3)cc2)c1=O (centres unmarked) [ITZA, itraconazole] ) is 19.2 mg/mL

----------
- assay.remarks: Maximum solubility of ITZA and azole analogues in solvents (HPLC)
- Assay type: physicochemical
- run.conditions: ethanol, organic solvent or mixture, thermodynamic from solid, in Ethanol; read-out: Maximum solubility
quantity.kind: solubility (µg/mL)
Lab book: enter the figure in µg/mL, no units written.

# solubility (compound: CCC(C)n1ncn(-c2ccc(N3CCN(c4ccc(OCC5COC(Cn6cncn6)(c6ccc(Cl)cc6Cl)O5)cc4)CC3)cc2)c1=O (stereo not shown) [ITZA, itraconazole] ) is 410
